Assay: resazurin metabolic signal in HepG2 cells – cell-based, resazurin fluorescence, 24 h, PK04 Diversity Set, profiling panel (AID 1172); also: test concentration not given here
Conditions: HepG2 viability, higher = more signal
Consider the following molecules; for each one, report its z-score.
Format: numeric value only, no unit, no commentary.

Data request: Would you kindly share the measured z-score for COc1ccc([Si](C)(C)[C@@H]2[C@@H](CC(=O)N3Cc4ccccc4C[C@H]3CO)O[C@]3(C(=O)N(Cc4cccc(N5C(=O)COc6ccccc65)c4)c4ccccc43)[C@H]2C)cc1 ?
Data returned: 0.645

Data request: Would you kindly share the measured z-score for C=CC[C@]1(C(=O)NCCN2CCOCC2)N=C(c2ccc(OCCCO)cc2)O[C@H]1c1ccccc1N=[N+]=[N-] ?
Data returned: -0.153

Data request: Would you kindly share the measured z-score for C=C(COC)C(=O)CC[C@@H](OC(=O)c1ccccc1-c1ccccc1C(=O)O)c1ccc(CO)o1 ?
Data returned: -0.731

---

Test system: Sonic hedgehog protein (Shh)
Test: Sonic hedgehog microarray binding compounds – biochemical, small-molecule microarray, 635/667 nm fluorescence, primary screen (AID 1151);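 also: Shh protein binding to compounds spotted on small-molecule microarray slides; score combines spot fluorescence intensity with signal-to-noise across triplicate slides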
Settings: 635 nm fluorescence, higher = more signal
MEASUREMENT TYPE: composite z-score
Format: numeric value only, no unit, no commentary.

Data request: Would you kindly share the measured composite z-score for CN1C(=O)C2C=CC(C(O)C(C)(C)C)N(Nc3ccccc3)C2C1=O (centres undefined) ?
Data returned: -0.624

Data request: Would you kindly share the measured composite z-score for COc1cc(CO)cc(I)c1O[C@H]1C=C(C(=O)NCCO)C[C@@H](N(CCc2cccc(F)c2)C(=O)CCC2CCCC2)[C@@H]1O ?
Data returned: 1.89

Data request: Would you kindly share the measured composite z-score for Cc1ccc(S[C@]2(C(=O)NCCCN(C)C)CC(=O)N(Cc3ccccc3)[C@@H]2c2ccc(CO)cc2)cc1 ?
Data returned: -1.02

Data request: Would you kindly share the measured composite z-score for C=C(COC)/C(=C/C[C@H](OC(C)=O)c1ccccc1OCCO)c1cnc2ccccc2c1 ?
Data returned: 1.65

Data request: Would you kindly share the measured composite z-score for C=CC[C@]1(C(=O)NCCN2CCOCC2)N=C(c2ccc(OCCCO)cc2)O[C@H]1c1ccccc1N=[N+]=[N-] ?
Data returned: 0.255

Data request: Would you kindly share the measured composite z-score for C=C(/C(=C/C[C@@H](OC(C)=O)c1ccc(CO)o1)c1cnc2ccccc2c1)C(C)C ?
Data returned: 2.04

Data request: Would you kindly share the measured composite z-score for COCCOC(=O)N1C(=O)[C@@]2(c3cc(C#CC4=CCCCC4)ccc31)[C@H](c1ccc(OCCO)cc1)N1[C@H](c3ccccc3)[C@H](c3ccccc3)OC(=O)[C@H]1[C@@H]2C(=O)Nc1nc2ccccc2s1 ?
Data returned: 0.911

Data request: Would you kindly share the measured composite z-score for O=[N+]([O-])c1ccc(C[n+]2ccc(CCCO)cc2)o1 ?
Data returned: 1.06

Data request: Would you kindly share the measured composite z-score for CCOC(=O)C1=C[C@@H](C(C)(C)C)N(S(=O)(=O)c2ccc(C)cc2)[C@H]1c1ccc(Cl)c(Cl)c1 ?
Data returned: 0.202

---

Consider the following molecules; for each one, report its composite z-score.
Test: probe aNOTCH3 binding on compound microarray – biochemical, small-molecule microarray, 635/667 nm fluorescence, primary screen (AID 1120);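 also: probe is a biotin-tagged antibody raised against NOTCH3 rather than NOTCH3 protein; score merges spot fluorescence near 667 nm with spot signal to noise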
Conditions: higher = more signal
Format: numeric value only, no unit, no commentary.

Data request: Would you kindly share the measured composite z-score for CC(C)(C)OC(=O)CC[C@@]1(C(=O)NCC(O)CO)N=C(c2ccc(OCCCO)cc2)O[C@@H]1c1ccccc1 (some centres undefined) ?
Data returned: 0.178

Data request: Would you kindly share the measured composite z-score for C=C(C(=O)CC[C@H](OC(=O)c1cccnc1)c1ccccc1OCCO)C(C)C ?
Data returned: 0.143

Data request: Would you kindly share the measured composite z-score for O=C1O[C@@H](c2ccccc2)[C@@H](c2ccccc2)N2[C@@H](c3ccc(O)cc3)[C@]3(C(=O)Nc4ccccc43)[C@@H](C(=O)NC[C@H](O)c3ccccc3)[C@H]12 ?
Data returned: -0.242

Data request: Would you kindly share the measured composite z-score for COC(=O)C(CC#Cc1ccc2c(c1)[C@]1(C(=O)N2)[C@H](C(=O)N2CCCCCCC2)[C@H]2C(=O)O[C@H](c3ccccc3)[C@H](c3ccccc3)N2[C@@H]1c1ccccc1OCCO)C(=O)OC ?
Data returned: 2.26

Data request: Would you kindly share the measured composite z-score for CC(C)[Si]1(C(C)C)O[C@@H](c2ccccc2)c2cc(-c3ccc(-c4ccc(Cl)c(Cl)c4)o3)nc(CCc3ccccc3)c21 ?
Data returned: -0.226

Data request: Would you kindly share the measured composite z-score for COCCCNC(=O)[C@@]1(C)c2ccccc2C(=O)N(Cc2ccccc2)[C@H]1c1ccc(CO)cc1 ?
Data returned: -0.274

Data request: Would you kindly share the measured composite z-score for O=C1C2C=CC(C(O)c3ccc(-c4ccccc4)s3)N(Nc3ccccc3F)C2C(=O)N1c1ccccc1 (centres undefined) ?
Data returned: 0.113

Data request: Would you kindly share the measured composite z-score for OCCCc1cc[n+](Cc2cccc(OC(F)(F)F)c2)cc1 ?
Data returned: 0.147

Data request: Would you kindly share the measured composite z-score for Cc1ccc(N2C(=O)c3ccccc3[C@](C)(C(=O)NCCN3CCOCC3)[C@@H]2c2ccc(CO)cc2)nc1 ?
Data returned: -0.279

Data request: Would you kindly share the measured composite z-score for O=C(NCc1ccccc1)[C@@H]1c2ccccc2C(=O)N(C2CCCCC2)[C@H]1c1ccc(CO)cc1 ?
Data returned: -0.112

Data request: Would you kindly share the measured composite z-score for NC(=O)[C@]1(Cc2ccccc2)N=C(c2ccc(OCCCO)cc2)O[C@@H]1c1ccccc1 ?
Data returned: 0.106

Data request: Would you kindly share the measured composite z-score for CCOC(=O)C1=CC[C@@H](c2ccccc2)N(S(=O)(=O)c2ccc(C)cc2)[C@H]1c1ccc(C#N)cc1 ?
Data returned: 0.116

Data request: Would you kindly share the measured composite z-score for CCOC1=C2C(c3ccc(C)cc3)N(S(=O)(=O)c3ccc(C)cc3)CC2n2c(=O)n(-c3ccccc3)c(=O)n2C1 (centres undefined) ?
Data returned: 0.125

Data request: Would you kindly share the measured composite z-score for COC(=O)[C@@]1(Cc2ccc(OC)cc2)[C@H]2c3cc(C(=O)N4CCCC4)n(CCN4CCOCC4)c3C[C@H]2CN1C(=O)c1ccccc1 ?
Data returned: 1.72

Data request: Would you kindly share the measured composite z-score for COc1c(C)cc(-c2cc3c(c(-c4ccccc4)n2)[Si](C(C)C)(C(C)C)O[C@H]3c2ccccc2)cc1C ?
Data returned: -0.0343

Data request: Would you kindly share the measured composite z-score for COC(=O)[C@@]1(Cc2ccc(F)cc2)[C@H]2c3cc(C(=O)N(C)C)n(CCc4c[nH]c5ccc(OC)cc45)c3C[C@H]2CN1C(=O)c1ccccc1 ?
Data returned: 0.351

Data request: Would you kindly share the measured composite z-score for COCC1=C([C@H](O)CCc2ccccc2)[C@H](CO)[C@@H]2C(=O)N(Cc3ccccc3)C(=O)[C@@H]2C1 ?
Data returned: -0.0456

Data request: Would you kindly share the measured composite z-score for CCCNC(=O)[C@@]1(C)c2ccccc2C(=O)N(Cc2ccc(OC(F)(F)F)cc2)[C@H]1c1ccc(CO)cc1 ?
Data returned: -0.0397

Data request: Would you kindly share the measured composite z-score for COc1ccc(C#Cc2ccc3c(c2)[C@]2(C(=O)N3)[C@H](c3ccc(OCCO)cc3)N3[C@H](c4ccccc4)[C@H](c4ccccc4)OC(=O)[C@H]3[C@@H]2C(=O)Nc2nc3ccccc3s2)cc1 ?
Data returned: 0.217

Data request: Would you kindly share the measured composite z-score for C=CC[C@]1(C(=O)O)N=C(c2ccc(OCCCO)cc2)O[C@H]1c1ccccc1CN=[N+]=[N-] ?
Data returned: -0.0447

Data request: Would you kindly share the measured composite z-score for C=CCC(OC(C)=O)[C@@H]1[C@@H](N(Cc2cc3ccccc3o2)C(=O)c2ccc(C)cc2)c2cc(OCCCO)ccc2N1C(=O)c1ccc(-c2ccccc2)cc1 (some centres undefined) ?
Data returned: 0.102

Data request: Would you kindly share the measured composite z-score for CN(C)CCCCCCNC(=O)[C@@H]1C[C@@H]2C(=O)N[C@@H](Cc3ccccc3)C(=O)N2[C@@H]1c1cccc(OCCO)c1 ?
Data returned: 0.0715

Data request: Would you kindly share the measured composite z-score for CCCCN1CC=CC23O[C@@H]4/C=C\CCCOC(=O)C4[C@H]2C(=O)N(C(C)CO)[C@@H]3C1=O (some centres undefined) ?
Data returned: -0.222

Data request: Would you kindly share the measured composite z-score for O=c1cccc(-c2cccc3ccccc23)o1 ?
Data returned: -0.0377

---

Molecular target: Calmodulin-1 (Homo sapiens) (UniProt P0DP23)
Test: small molecules binding Ca-loaded calmodulin-1 – biochemical, small-molecule microarray, Cy5-labelled CALM1, plus calcium, artefact control for SMM control-protein annotation, profiling panel (AID 1112);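 also: score merges spot fluorescence with signal to noise from triplicate slides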
Conditions: Cy5-CALM1 binding fluorescence, higher = more signal
MEASUREMENT TYPE: composite z-score
Format: numeric value only, no unit, no commentary.

Data request: Would you kindly share the measured composite z-score for C=CCNC(=O)[C@H]1[C@@H]2C(=O)O[C@@H](c3ccccc3)[C@@H](c3ccccc3)N2[C@@H](c2ccc(OCCO)cc2)[C@]12C(=O)N(C(=O)OCCOC)c1ccc(C#CC3(O)CCCCCC3)cc12 ?
Data returned: -0.12

Data request: Would you kindly share the measured composite z-score for CC1CC/C=C\[C@H]2OC34C=CCN(CCN5CCOCC5)C(=O)[C@H]3N(CCCCCO)C(=O)[C@@H]4C2C(=O)O1 (stereo partly drawn) ?
Data returned: -1.59

Data request: Would you kindly share the measured composite z-score for CCN(CC)c1ccc(N2CC=CC34O[C@@H]5/C=C\CCC(C)OC(=O)C5[C@H]3C(=O)N(CCCCCCO)[C@@H]4C2=O)cc1 (stereo partly drawn) ?
Data returned: -0.304

Data request: Would you kindly share the measured composite z-score for COC(=O)C(CC#Cc1ccc2c(c1)[C@]1(C(=O)N2)[C@H](C(=O)N2CCCCCCC2)[C@H]2C(=O)O[C@H](c3ccccc3)[C@H](c3ccccc3)N2[C@@H]1c1ccccc1OCCO)C(=O)OC ?
Data returned: 1.85

Data request: Would you kindly share the measured composite z-score for CCCC[C@@H]1C[C@H]1[C@@H](NC(=O)c1ccco1)c1ccccc1 ?
Data returned: 0.479

Data request: Would you kindly share the measured composite z-score for CCOC1=C2C(c3ccc(C)cc3)N(S(=O)(=O)c3ccc(C)cc3)CC2n2c(=O)n(-c3ccccc3)c(=O)n2C1 (stereo not drawn) ?
Data returned: -0.332

Data request: Would you kindly share the measured composite z-score for Cc1ccc(C(C)CC(O)C2C=CC3C(=O)NC(=O)C3N2Nc2ccccn2)o1 (stereo not drawn) ?
Data returned: -0.743

Data request: Would you kindly share the measured composite z-score for CN1C(=O)C2C=CC(C(O)C=Cc3ccc([N+](=O)[O-])cc3)N(N3CCCCC3)C2C1=O (stereo not drawn) ?
Data returned: 0.925

Data request: Would you kindly share the measured composite z-score for CN(C)CCCC[C@@H]1NC(=O)[C@@H]2C[C@H](C(=O)NCc3ccc(F)cc3)[C@H](c3cccc(OCCO)c3)N2C1=O ?
Data returned: 0.136

Data request: Would you kindly share the measured composite z-score for [N-]=[N+]=NCc1ccccc1C[C@]1(C(N)=O)N=C(c2ccc(OCCCO)cc2)O[C@H]1c1ccccc1N=[N+]=[N-] ?
Data returned: 0.596

Data request: Would you kindly share the measured composite z-score for COC(=O)[C@@]1(Cc2ccc(F)cc2)[C@H]2c3cc(C(=O)N4CCCC4)n(CCc4ccc(OC)c(Br)c4)c3C[C@H]2CN1C(=O)c1ccccc1 ?
Data returned: 1.29

Data request: Would you kindly share the measured composite z-score for [N-]=[N+]=NCc1ccccc1[C@@H]1OC(c2ccc(OCCCO)cc2)=N[C@]1(Cc1ccccc1)C(=O)O ?
Data returned: 0.518

Data request: Would you kindly share the measured composite z-score for COCCOC(=O)N1C(=O)[C@@]2(c3cc(C#CCC(C(=O)OC)C(=O)OC)ccc31)[C@H](c1ccccc1OCCO)N1[C@H](c3ccccc3)[C@H](c3ccccc3)OC(=O)[C@H]1[C@@H]2C(=O)Nc1nc2ccccc2s1 ?
Data returned: 0.522

Data request: Would you kindly share the measured composite z-score for COCCCNC(=O)[C@@]1(Cc2ccccc2I)c2ccccc2C(=O)N(Cc2ccccc2)[C@H]1c1ccc(CO)cc1 ?
Data returned: 0.239

Data request: Would you kindly share the measured composite z-score for O=C(NCC(O)CO)[C@]1(CCS(=O)(=O)c2ccccc2)N=C(c2ccc(OCCCO)cc2)O[C@@H]1c1ccccc1 (stereo partly drawn) ?
Data returned: 1.48

Data request: Would you kindly share the measured composite z-score for CN1C(=O)C2C(C1=O)C1C=C(c3ccc(CO)cc3)C2C(C2CC2)N1Cc1cc2c(cc1Br)OCO2 (stereo not drawn) ?
Data returned: 0.6

Data request: Would you kindly share the measured composite z-score for C=CCC(OC(C)=O)[C@@H]1[C@@H](N(Cc2cc3ccccc3o2)C(=O)c2cccc3ccccc23)c2cc(OCCCO)ccc2N1C(=O)Cc1ccc(OC)cc1 (stereo partly drawn) ?
Data returned: 0.344

Data request: Would you kindly share the measured composite z-score for COC(=O)[C@@]1(Cc2ccc(OC)cc2)[C@H]2c3cc(C(=O)N4CCCC4)n(C[C@H](O)CO)c3C[C@H]2CN1C(=O)c1ccccc1 ?
Data returned: 0.91

Data request: Would you kindly share the measured composite z-score for CCCC[C@@H]1C[C@H]1[C@@H](NC(=O)c1ccccc1)c1ccccc1 ?
Data returned: 0.635

Data request: Would you kindly share the measured composite z-score for C=CCC(OC(C)=O)[C@@H]1[C@@H](N(Cc2ccc(-c3ccccc3)cc2)C(=O)c2ccc(C)cc2)c2cc(OCCCO)ccc2N1C(=O)c1ccc2ccccc2n1 (stereo partly drawn) ?
Data returned: 0.24

Data request: Would you kindly share the measured composite z-score for COCCOC(=O)N1C(=O)[C@@]2(c3ccccc31)[C@H](c1ccc(O)cc1)N1[C@H](c3ccccc3)[C@H](c3ccccc3)OC(=O)[C@H]1[C@@H]2C(N)=O ?
Data returned: -0.0872

Data request: Would you kindly share the measured composite z-score for CC(C)(C)OC(=O)CC[C@@]1(C(N)=O)N=C(c2ccc(OCCCO)cc2)O[C@@H]1c1ccccc1N=[N+]=[N-] ?
Data returned: 0.774

Data request: Would you kindly share the measured composite z-score for O=C1C[C@@](C(=O)O)(c2ccc([N+](=O)[O-])cc2)[C@@H](c2ccc(CO)cc2I)N1CC12CC3CC(CC(C3)C1)C2 ?
Data returned: 0.889
